Reference source: the supplement of paper PMC11451515

Test system: SEM cells
assayName: cell viability relative to DMSO control; higher = less cytotoxic
testConditions: RPMI 5 mM glucose + 10% FBS; 48 h; 0.0211 µM
Recorded cell viability by entry

{"compound": "C[C@]12COC(=O)C[C@@H]1CC[C@@H]1[C@@H]2CC[C@@]2(C)[C@H]1CC[C@]2(C)O", "testedOn": "SEM cells", "measurementUnits": "%", "cell viability": 100}
{"compound": "O=C(c1ccc(OCCN2CCCCC2)cc1)c1c(-c2ccc(O)cc2)sc2cc(O)ccc12", "testedOn": "SEM cells", "measurementUnits": "%", "cell viability": 133}
{"compound": "CCCCC(=O)O[C@]1(C(=O)CO)[C@H](C)C[C@H]2[C@@H]3CCC4=CC(=O)C=C[C@]4(C)[C@@]3(F)[C@@H](O)C[C@@]21C", "testedOn": "SEM cells", "measurementUnits": "%", "cell viability": 124}
{"compound": "C=C1/C(=C\\C=C2/CCC[C@]3(C)[C@@H]([C@H](C)CCCC(C)(C)O)CC[C@@H]23)C[C@@H](O)C[C@@H]1O", "testedOn": "SEM cells", "measurementUnits": "%", "cell viability": 113}
{"compound": "NC\\1=N\\C(=O)N(\\C=C1)[C@@H]2O[C@H](CO)[C@@H](O)[C@@H]2O", "testedOn": "SEM cells", "measurementUnits": "%", "cell viability": 21.1}
{"compound": "CC1(C)O[C@@H]2C[C@H]3[C@@H]4C[C@H](F)C5=CC(=O)C=C[C@]5(C)[C@@]4(F)[C@@H](O)C[C@]3(C)[C@]2(C(=O)CO)O1", "testedOn": "SEM cells", "measurementUnits": "%", "cell viability": 82.6}
{"compound": "CC[C@]12CC[C@H]3[C@@H](CCC/4=C/C(=O)CC[C@H]34)[C@@H]1\\C=C/[C@@]2(O)C#C", "testedOn": "SEM cells", "measurementUnits": "%", "cell viability": 123}
{"compound": "CC(C)OC(=O)/C1=C/N(CC(C)(C)C2=C1[NH]C3=CC=CC=C23)C(=O)C4=CC=C(F)C(=C4)F", "testedOn": "SEM cells", "measurementUnits": "%", "cell viability": 80.2}
{"compound": "CCC[S+]([O-])c1ccc2[nH]c(NC(=O)OC)nc2c1 (stereo unspecified)", "testedOn": "SEM cells", "measurementUnits": "%", "cell viability": 99.3}
{"compound": "O=C1NC(=O)/C(=C/c2ccc3nccc(-c4ccncc4)c3c2)S1", "testedOn": "SEM cells", "measurementUnits": "%", "cell viability": 116}
{"compound": "C[N]1C=C(C=N1)C2=C3\\C=N/NC(=O)C4=C3C(=CC(=C4)NC(=O)[C@H](N)C5CCCCC5)[NH]2", "testedOn": "SEM cells", "measurementUnits": "%", "cell viability": 99.2}
{"compound": "FC1=CC=C(C=C1)N2/C=C\\C=C(C(=O)NC3=CC=C(OC4=C5C=C[NH]C5=NC=C4)C(=C3)F)/C2=O", "testedOn": "SEM cells", "measurementUnits": "%", "cell viability": 76}
{"compound": "COC(=O)C[C@](O)(CCCC(C)(C)O)C(=O)O[C@@H]1C(OC)=CC23CCCN2CCc2cc4c(cc2[C@H]13)OCO4 (stereo partly specified)", "testedOn": "SEM cells", "measurementUnits": "%", "cell viability": 98.1}
{"compound": "CN[C@H]1CCC2=CC(=C(OC)C(=C2C/3=C/C=C(OC)\\C(=O)/C=C13)OC)OC", "testedOn": "SEM cells", "measurementUnits": "%", "cell viability": 16.8}
{"compound": "CNCCCC12CCC(c3ccccc31)c1ccccc12", "testedOn": "SEM cells", "measurementUnits": "%", "cell viability": 99.4}
{"compound": "O=C(Nc1cc(Cl)cc2c1[nH]c1cnccc12)c1cccnc1", "testedOn": "SEM cells", "measurementUnits": "%", "cell viability": 117}
